Attribution: patent US12258327B2

Here the recorded IC50 is given for each entry.
- System Name: UniProt P00533
- Procedure Text: Biochemical EGFR kinase assay (Lance Ultra TR-FRET), wildtype
- Condition: Km ATP; read-out: IC50 WT (nM) Km ATP
Just the number please, in nM, no unit attached.

Examples with answers:
CN[C@H]1CC[C@@H](Oc2cc(Nc3ccnc(-c4cnn(S(=O)(=O)C5CC5)c4)n3)ncc2-c2cnn(C(F)F)c2)CC1 ... 114
C[C@]1(O)CC[C@@H](Nc2cc(Nc3ccnc(-c4cnn(S(=O)(=O)C5CCCC5)c4)n3)ncc2-c2ccn(C(F)F)n2)CC1 ... 20.2

Let's switch to this molecule now.
// IC50 lookup, molecule = CCS(=O)(=O)n1cc(-c2nccc(Nc3cc(N[C@H]4CC[C@@](C)(O)CC4)c(-c4ccn(C(F)F)n4)cn3)n2)cn1 , result: 44.2

----------
Here the recorded IC50 is given for each entry.
- System Name: EGFR del19/T790M/C797S (Homo sapiens, UniProt P00533, C797S/DEL746-750/T790M)
- Sequence (P00533 with tags, fused parts or gaps DEL746-750/T790M/C797S): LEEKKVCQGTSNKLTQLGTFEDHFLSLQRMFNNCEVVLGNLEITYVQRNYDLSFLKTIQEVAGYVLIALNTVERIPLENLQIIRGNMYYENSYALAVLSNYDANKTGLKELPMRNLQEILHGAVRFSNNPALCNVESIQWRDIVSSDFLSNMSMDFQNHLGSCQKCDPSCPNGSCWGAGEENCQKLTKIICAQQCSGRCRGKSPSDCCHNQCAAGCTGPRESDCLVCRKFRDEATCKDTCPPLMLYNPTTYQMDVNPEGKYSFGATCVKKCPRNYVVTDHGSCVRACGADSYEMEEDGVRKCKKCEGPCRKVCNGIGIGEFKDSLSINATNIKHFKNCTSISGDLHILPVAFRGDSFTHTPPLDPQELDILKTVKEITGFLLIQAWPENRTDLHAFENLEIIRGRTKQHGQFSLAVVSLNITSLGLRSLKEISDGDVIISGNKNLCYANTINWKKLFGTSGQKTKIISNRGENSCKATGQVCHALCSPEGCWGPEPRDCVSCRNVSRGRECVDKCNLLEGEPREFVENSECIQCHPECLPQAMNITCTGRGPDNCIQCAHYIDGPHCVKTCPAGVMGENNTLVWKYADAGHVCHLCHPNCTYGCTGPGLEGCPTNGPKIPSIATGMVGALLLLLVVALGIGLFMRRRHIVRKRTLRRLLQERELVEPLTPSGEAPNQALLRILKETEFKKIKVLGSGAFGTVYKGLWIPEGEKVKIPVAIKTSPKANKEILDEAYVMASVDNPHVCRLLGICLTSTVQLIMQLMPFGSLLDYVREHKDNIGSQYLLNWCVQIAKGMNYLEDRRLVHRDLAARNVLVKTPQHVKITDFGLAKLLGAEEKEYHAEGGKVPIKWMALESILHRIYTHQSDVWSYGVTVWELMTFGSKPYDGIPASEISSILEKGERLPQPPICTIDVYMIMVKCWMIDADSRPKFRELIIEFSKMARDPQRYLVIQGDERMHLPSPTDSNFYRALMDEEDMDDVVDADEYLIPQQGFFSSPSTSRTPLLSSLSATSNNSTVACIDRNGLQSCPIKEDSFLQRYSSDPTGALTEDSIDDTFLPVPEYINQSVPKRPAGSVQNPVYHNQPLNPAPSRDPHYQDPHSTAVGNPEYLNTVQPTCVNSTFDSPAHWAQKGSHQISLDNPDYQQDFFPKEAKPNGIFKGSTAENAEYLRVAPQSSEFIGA
- Procedure Text: Biochemical EGFR kinase assay (Lance Ultra TR-FRET), triple mutant del19/T790M/C797S
- Condition: Km ATP; read-out: IC50 del19/T790M/C797S (nM) Km ATP
# output: numeric value plus its unit

Examples with answers:
Cc1nn(-c2cnc(Nc3ccnc(-c4cnn(S(=O)(=O)C5CC5)c4)n3)cc2N[C@H]2CC[C@@](C)(O)CC2)cc1C(F)(F)F ... 0.8 nM
O=S(=O)(C1CC1)n1cc(-c2nccc(Nc3cc(NC4CCC5(CC4)CNC5)c(-c4ccn(C(F)F)n4)cn3)n2)cn1 ... 0.7 nM
C[C@]1(O)CC[C@@H](Nc2cc(Nc3ccnc(-c4cnn(S(=O)(=O)C5CC5)c4)n3)ncc2-n2ccc(OC(F)F)n2)CC1 ... 0.7 nM
CN(C)S(=O)(=O)n1ccc(-c2nccc(Nc3cc(N[C@H]4CC[C@@](C)(O)CC4)c(-c4ccn(C(F)F)n4)cn3)n2)c1 ... 9.5 nM
CC(C)(O)[C@H]1CC[C@@H](Nc2cc(Nc3ccnc(-c4cnn(CC(F)F)c4)n3)ncc2-c2ccn(C(F)F)n2)CC1 ... 1.4 nM

Let's switch to this compound now.
// IC50 lookup, compound = CN(C)C[C@H]1CC[C@@H](Nc2cc(Nc3ccnc(-c4cnn(S(=O)(=O)C5CC5)c4)n3)ncc2-c2cc(C(F)(F)F)n(C)n2)CC1 , result: 1.4 nM

----------
- System Name: EGFR del19/C797S (Homo sapiens, UniProt P00533, C797S/DEL746-750)
- Sequence (P00533 with tags, fused parts or gaps DEL746-750/C797S): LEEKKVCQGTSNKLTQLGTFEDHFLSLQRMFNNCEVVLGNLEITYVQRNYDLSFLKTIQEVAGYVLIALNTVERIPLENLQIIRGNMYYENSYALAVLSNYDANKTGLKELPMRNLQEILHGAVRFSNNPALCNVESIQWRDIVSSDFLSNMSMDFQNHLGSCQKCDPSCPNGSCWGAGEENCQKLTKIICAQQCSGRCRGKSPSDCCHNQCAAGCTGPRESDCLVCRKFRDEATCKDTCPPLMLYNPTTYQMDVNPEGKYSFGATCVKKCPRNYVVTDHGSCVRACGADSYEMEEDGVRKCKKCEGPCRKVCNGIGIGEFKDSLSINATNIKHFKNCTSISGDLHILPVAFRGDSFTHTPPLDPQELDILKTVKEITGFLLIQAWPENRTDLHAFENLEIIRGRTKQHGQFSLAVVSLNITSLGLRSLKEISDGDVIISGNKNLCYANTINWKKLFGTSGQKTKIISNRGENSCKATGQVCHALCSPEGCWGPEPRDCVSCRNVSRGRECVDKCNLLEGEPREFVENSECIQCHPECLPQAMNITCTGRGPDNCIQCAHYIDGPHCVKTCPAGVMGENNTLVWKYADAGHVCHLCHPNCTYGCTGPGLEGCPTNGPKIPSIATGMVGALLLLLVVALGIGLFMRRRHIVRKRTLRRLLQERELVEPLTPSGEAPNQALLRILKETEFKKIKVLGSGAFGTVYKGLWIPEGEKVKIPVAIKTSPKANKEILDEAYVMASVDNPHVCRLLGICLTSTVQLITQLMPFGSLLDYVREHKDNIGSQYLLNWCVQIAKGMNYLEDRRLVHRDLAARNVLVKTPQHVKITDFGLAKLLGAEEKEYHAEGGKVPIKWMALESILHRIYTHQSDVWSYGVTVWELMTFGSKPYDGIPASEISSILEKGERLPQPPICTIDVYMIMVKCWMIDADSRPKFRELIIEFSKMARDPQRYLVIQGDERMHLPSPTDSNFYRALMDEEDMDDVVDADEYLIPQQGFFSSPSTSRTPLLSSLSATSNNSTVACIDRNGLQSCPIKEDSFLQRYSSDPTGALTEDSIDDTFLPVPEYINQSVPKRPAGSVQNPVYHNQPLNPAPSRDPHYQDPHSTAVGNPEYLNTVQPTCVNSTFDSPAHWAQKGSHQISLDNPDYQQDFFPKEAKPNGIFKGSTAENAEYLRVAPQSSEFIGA
- Procedure Text: Biochemical EGFR kinase assay (Lance Ultra TR-FRET), double mutant del19/C797S
- Condition: IC50 del19/C797S (nM) 100 μM ATP, 100 μM ATP
Here the recorded IC50 is given for each entry.
Just the number please, in nM, no unit attached.

CC(O)C(C)(C)Nc1cc(Nc2ccnc(-c3cnn(S(=O)(=O)C4CC4)c3)n2)ncc1-c1ccn(C(F)F)n1 (stereo not shown) [Example 7] ... 281
CN(C)CCCn1ccc(-c2cnc(Nc3ccnc(-c4cnn(S(=O)(=O)C5CC5)c4)n3)cc2N[C@H]2CC[C@@](C)(O)CC2)n1 [Example 288] ... 0.2
COc1ncc(-c2nccc(Nc3cc(N[C@H]4CC[C@@](C)(O)CC4)c(-c4ccn(C(F)F)n4)cn3)n2)cn1 [Example 312] ... 353
Cn1ccc(-c2cnc(Nc3ccnc(-c4cnn(S(=O)(=O)C5CC5)c4)n3)cc2NC[C@H]2CC[C@H](NCC(F)F)CC2)n1 [Example 129] ... 2
CC(C)(CO)CNc1cc(Nc2ccnc(-c3cnn(S(=O)(=O)C4CC4)c3)n2)ncc1-c1csc(C(C)(C)O)n1 [Example 90] ... 367

// IC50 lookup, compound = O=S(=O)(C1CC1)n1cc(-c2nccc(Nc3cc(NC[C@H]4C[C@@H](O)C4)c(-c4ccn(C(F)F)n4)cn3)n2)cn1 [Example 35] , result: 5.4

// IC50 lookup, compound = CN(C)CCCn1ccc(-c2cnc(Nc3ccnc(-c4cnn(S(=O)(=O)C5CC5)c4)n3)cc2N[C@H]2CC[C@@H](C(C)(C)O)CC2)n1 [Example 278] , result: 1

// IC50 lookup, compound = CNC1CCC(Nc2cc(Nc3ccnc(-c4cnn(S(=O)(=O)C5CC5)c4)n3)ncc2-c2ccn(C(F)F)n2)CC1 (stereo not shown) [Example 16] , result: 2

// IC50 lookup, compound = CN[C@H]1CC[C@@H](Oc2cc(Nc3ccnc(-c4cnn(S(=O)(=O)C5CC5)c4)n3)ncc2-c2cnn(C(F)F)c2)CC1 [Example 69] , result: 18.7

// IC50 lookup, compound = O=S(=O)(C1CC1)n1cc(-c2nccc(Nc3cc(OC4CCC(O)C4)c(-c4ccn(C(F)F)n4)cn3)n2)cn1 (stereo not shown) [Example 67] , result: 111

// IC50 lookup, compound = O=S(=O)(C1CC1)n1cc(-c2nccc(Nc3cc(NC4CCC(NCCO)CC4)c(-c4csc(C(F)(F)F)n4)cn3)n2)cn1 (stereo not shown) [Example 97] , result: 18

// IC50 lookup, compound = CN(C)C[C@H]1CC[C@@H](Nc2cc(Nc3ccnc(-c4cnn(S(=O)(=O)C5CC5)c4)n3)ncc2-c2ccn(CC(F)(F)F)n2)CC1 [Example 266] , result: 0.3

// IC50 lookup, compound = C[C@]1(O)CC[C@@H](Nc2cc(Nc3ccnc(-c4cnn(S(=O)(=O)C5CC5)c4)n3)ncc2-c2cc3n(n2)CCCC3)CC1 [Example 59] , result: 1.9

----------
- System Name: EGFR del19/T790M/C797S (Homo sapiens, UniProt P00533, C797S/DEL746-750/T790M)
- Procedure Text: Biochemical EGFR kinase assay (Lance Ultra TR-FRET), triple mutant del19/T790M/C797S
- Condition: IC50 del19/T790M/C797S (nM) 100 μM ATP, 100 μM ATP
Measured Parameter: IC50 (nM)
Just the number please, in nM, no unit attached.

Examples with answers:
CCS(=O)(=O)n1cc(-c2nccc(Nc3cc(N[C@H]4CC[C@@](C)(O)CC4)c(-c4ccn(C(F)F)n4)cn3)n2)cn1 ... 0.4
Cn1nc(-c2cnc(Nc3ccnc(-c4cnn(S(=O)(=O)C5CC5)c4)n3)cc2N[C@H]2CC[C@@H](C(C)(C)O)CC2)cc1C(C)(C)O ... 1.8

Let's switch to this compound now.
// IC50 lookup, compound = O=S(=O)(C1CC1)n1cc(-c2nccc(Nc3cc(OC4CCC(O)CC4)c(-c4cnn(C(F)F)c4)cn3)n2)cn1 (stereo not drawn) , result: 0.2

----------
- System Name: EGFR L858R/T790M/C797S (Homo sapiens, UniProt P00533, C797S/L858R/T790M)
- Sequence (P00533 25-1210 T790M/C797S/L858R): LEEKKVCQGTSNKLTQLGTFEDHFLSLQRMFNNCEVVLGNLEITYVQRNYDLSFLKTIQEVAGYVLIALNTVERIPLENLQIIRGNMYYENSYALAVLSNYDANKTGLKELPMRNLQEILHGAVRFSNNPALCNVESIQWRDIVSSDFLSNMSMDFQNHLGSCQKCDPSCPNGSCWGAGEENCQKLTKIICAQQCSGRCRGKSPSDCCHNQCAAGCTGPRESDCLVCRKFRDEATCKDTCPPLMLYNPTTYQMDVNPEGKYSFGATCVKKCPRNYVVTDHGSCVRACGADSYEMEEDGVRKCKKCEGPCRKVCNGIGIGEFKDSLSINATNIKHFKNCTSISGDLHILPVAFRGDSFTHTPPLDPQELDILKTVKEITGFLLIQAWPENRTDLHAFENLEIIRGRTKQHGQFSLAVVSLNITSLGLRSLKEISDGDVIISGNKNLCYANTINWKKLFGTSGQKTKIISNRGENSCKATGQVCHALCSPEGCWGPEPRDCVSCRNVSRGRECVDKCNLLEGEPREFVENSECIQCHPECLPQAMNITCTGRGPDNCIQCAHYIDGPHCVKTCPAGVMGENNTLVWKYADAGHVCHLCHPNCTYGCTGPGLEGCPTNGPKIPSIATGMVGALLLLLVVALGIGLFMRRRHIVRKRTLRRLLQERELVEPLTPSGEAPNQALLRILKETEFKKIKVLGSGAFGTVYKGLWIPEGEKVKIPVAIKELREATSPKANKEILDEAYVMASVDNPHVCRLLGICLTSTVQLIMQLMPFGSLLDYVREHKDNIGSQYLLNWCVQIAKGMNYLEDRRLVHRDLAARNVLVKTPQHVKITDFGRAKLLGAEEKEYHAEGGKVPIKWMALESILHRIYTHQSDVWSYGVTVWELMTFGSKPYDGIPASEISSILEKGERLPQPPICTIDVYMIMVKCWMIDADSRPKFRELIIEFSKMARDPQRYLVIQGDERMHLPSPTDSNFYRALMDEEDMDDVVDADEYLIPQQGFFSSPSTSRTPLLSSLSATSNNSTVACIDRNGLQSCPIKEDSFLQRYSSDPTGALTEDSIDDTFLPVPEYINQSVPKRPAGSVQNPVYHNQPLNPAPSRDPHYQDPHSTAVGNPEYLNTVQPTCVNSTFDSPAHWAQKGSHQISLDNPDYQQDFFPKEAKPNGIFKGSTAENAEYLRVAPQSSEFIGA
- Procedure Text: Biochemical EGFR kinase assay (Lance Ultra TR-FRET), triple mutant L858R/T790M/C797S
- Condition: Km ATP; read-out: IC50 L858R/T790M/C797S (nM) Km ATP
Measured Parameter: IC50 (nM)
Just the number please, in nM, no unit attached.

The reported EGFR L858R/T790M/C797S (Homo sapiens, UniProt P00533, C797S/L858R/T790M) IC50 of CS(=O)(=O)n1cc(-c2nccc(Nc3cc(N[C@H]4CC[C@@](C)(O)CC4)c(-c4ccn(C(F)F)n4)cn3)n2)cn1 is 0.5

The reported EGFR L858R/T790M/C797S (Homo sapiens, UniProt P00533, C797S/L858R/T790M) IC50 of O=S(=O)(C1CC1)n1cc(-c2nccc(Nc3cc(N[C@H]4CC[C@](O)(CO)CC4)c(-c4cc5n(n4)CCCC5)cn3)n2)cn1 is 0.2

The reported EGFR L858R/T790M/C797S (Homo sapiens, UniProt P00533, C797S/L858R/T790M) IC50 of O=S(=O)(C1CC1)n1cc(-c2nccc(Nc3cc(NCC4CCC(O)C4)c(-c4ccn(C(F)F)n4)cn3)n2)cn1 (stereo not drawn) is 0.5

The reported EGFR L858R/T790M/C797S (Homo sapiens, UniProt P00533, C797S/L858R/T790M) IC50 of O=S(=O)(C1CC1)n1cc(-c2nccc(Nc3cc(NC[C@H]4CC[C@@H](O)CC4)c(-c4ccn(C(F)F)n4)cn3)n2)cn1 is 0.3

The reported EGFR L858R/T790M/C797S (Homo sapiens, UniProt P00533, C797S/L858R/T790M) IC50 of CC1(O)CCC(Oc2cc(Nc3ccnc(-c4cnn(S(=O)(=O)C5CC5)c4)n3)ncc2-c2cnn(C(F)F)c2)CC1 (stereo not drawn) is 0.2

The reported EGFR L858R/T790M/C797S (Homo sapiens, UniProt P00533, C797S/L858R/T790M) IC50 of O=S(=O)(C1CC1)n1cc(-c2nccc(Nc3cc(NCC4CCC(NCCF)CC4)c(-c4ccn(C(F)F)n4)cn3)n2)cn1 (stereo not drawn) is 0.1
